Provide the reported INH of each item.
# PROTOCOL DETAILS: Anticomplement activity in sheep erythrocytes assessed as concentration required for 50% hemolytic inhibition by classical pathway after 30 mins by spectrophotometry
# Assay type: functional, cell-based
# CONDITION DESCRIPTION: Ovis aries; Erythrocyte
Record the value in mM, omitting the unit from your answer.

Any idea what its INH is? The compound is "C[C@@]12C[C@@]3(O)O[C@@H](O1)[C@]1(COC(=O)c4ccc(O)cc4)[C@@H]3C[C@]12O[C@@H]1O[C@H](CO)[C@@H](O)[C@H](O)[C@H]1O"
2.28

Any idea what its INH is? The compound is "COc1cc(C(=O)OC[C@H]2O[C@@H](O[C@@]34C[C@H]5[C@@]3(COC(=O)c3ccccc3)[C@H]3O[C@]5(O)C[C@]4(C)O3)[C@H](O)[C@@H](O)[C@@H]2O)ccc1O"
2.02

Any idea what its INH is? The compound is "C[C@@]12C[C@@]3(O)O[C@@H](O1)[C@]1(COC(=O)c4ccccc4)[C@H]3C[C@@]12O[C@@H]1O[C@H](COC(=O)c2ccccc2)[C@@H](O[C@@H]2O[C@H](CO)[C@@H](O)[C@H](O)[C@H]2O)[C@H](O)[C@H]1O"
2.29

Measured values drawn from ChEMBL document CHEMBL3102746 for this set.
